targetUnderTest: SHP2 (Homo sapiens (Human))
Sequence (Q06124 whole entry): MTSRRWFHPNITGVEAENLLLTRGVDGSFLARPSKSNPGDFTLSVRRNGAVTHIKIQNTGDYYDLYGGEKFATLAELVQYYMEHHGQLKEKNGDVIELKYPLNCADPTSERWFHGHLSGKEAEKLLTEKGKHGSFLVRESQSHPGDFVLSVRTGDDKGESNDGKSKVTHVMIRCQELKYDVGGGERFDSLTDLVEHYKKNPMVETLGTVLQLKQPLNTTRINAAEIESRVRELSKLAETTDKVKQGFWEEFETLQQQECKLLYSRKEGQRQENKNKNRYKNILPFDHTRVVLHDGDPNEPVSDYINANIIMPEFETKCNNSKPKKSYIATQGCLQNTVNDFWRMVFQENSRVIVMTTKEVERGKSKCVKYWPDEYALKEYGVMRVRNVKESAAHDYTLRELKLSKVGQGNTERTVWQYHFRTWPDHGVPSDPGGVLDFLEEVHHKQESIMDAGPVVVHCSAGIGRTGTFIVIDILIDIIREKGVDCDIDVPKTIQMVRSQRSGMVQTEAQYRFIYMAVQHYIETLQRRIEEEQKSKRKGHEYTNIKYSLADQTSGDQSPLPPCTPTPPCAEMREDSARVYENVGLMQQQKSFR
assayProcedure: SHP2 Allosteric Inhibition Assay (DiFMUP prompt fluorescence)
runConditions: 0.2 nM SHP2 with 0.5 μM Activating Peptide 1 or 2, surrogate substrate DiFMUP, 25° C.; read-out: SHP2 Allosteric Biochem: IC50
Recorded measurements of IC50, one per entry
Kindly report the value followed by its unit.

N[C@@H]1CCCC12CCN(c1cnc(-c3cccc(Cl)c3Cl)c(O)c1)CC2 740 nM
N[C@@H]1CCCC12CCN(c1cc(O)c(-c3cccc(Cl)c3Cl)nc1CO)CC2 210 nM
Cc1cc(N2CCC3(CCC[C@H]3N)CC2)cnc1-c1cccc(Cl)c1Cl 210 nM

Supply reported IC50 belonging to this compound: Cc1cc(N2CCC3(CCC[C@H]3N)CC2)c(CO)nc1-c1cccc(Cl)c1Cl
69 nM

Supply reported IC50 belonging to this compound: N[C@@H]1CCCC12CCN(c1cc(O)c(Sc3cccc(Cl)c3Cl)nc1CO)CC2
37 nM
